Provide the reported Papp A→B at 120 min, 5 μM of each item.
Tested on: MDR1 (P-gp)
experiment: in vitro
assay.conditions: dog, MDCK-MDR1, pH 7.4
One number for each entry, in ×10⁻⁶ cm/s.

1) CN(c1ccc(-c2cc3ccn(C)c(=O)c3cc2O)nn1)[C@H]1C[C@@H]2CC[C@H]([C@H]1F)N2C (single isomer, unassigned) [Compound 97B] :: 1.96
2) CN(c1ccc(-c2ccc(C(F)F)cc2O)nn1)[C@H]1C[C@@H]2CC[C@@H](N2)[C@H]1F (single isomer, unassigned) [Compound 120B] :: 5.84
3) CN(c1ccc(-c2cnc(C#N)cc2O)nn1)[C@H]1C[C@@H]2CC[C@@H](N2)[C@H]1F (single isomer, unassigned) [Compound 71B] :: 5.04
4) CN(c1ccc(-c2cn3c(=O)ccnc3cc2O)nn1)[C@@H]1C[C@H]2CC[C@@H]([C@@H]1F)N2C (single isomer, unassigned) [Compound 95A] :: 0.15
5) CN(c1ccc(-c2ccc(C3CC3)cc2O)nn1)[C@H]1C[C@@H]2CC[C@@H](N2)[C@H]1F (single isomer, unassigned) [Compound 31B] :: 7.08

Working through the 4 compounds below one at a time, give Papp A→B at 120 min, 5 μM for each.
1. CN(C)C(=O)c1cc(O)c(-c2ccc(N(C)[C@@H]3C[C@H]4CC[C@H](N4)[C@@H]3F)nn2)cc1F (single isomer, unassigned) [Compound 53A]
2. O=c1c2cc(O)c(-c3ccc(N(C4CC4)[C@H]4C[C@@H]5CC[C@@H](N5)[C@H]4F)nn3)cc2ncn1CC(F)(F)F (single isomer, unassigned) [Compound 60B]
3. CN(c1ccc(-c2ccc(C(F)F)cc2O)nn1)[C@@H]1C[C@H]2CC[C@H](N2)[C@@H]1F (single isomer, unassigned) [Compound 120A]
4. Cc1nc2cc(O)c(-c3ccc(N(C)[C@@H]4C[C@H]5CC[C@H](N5)C4F)nn3)cc2o1 (stereo in doubt) [Compound 40A]

1. 0.32
2. 0.68
3. 4.59
4. 3.68

Working through the 3 compounds below one at a time, give Papp A→B at 120 min, 5 μM for each.
1. CN(c1ccc(-c2ccc(Oc3cnn(C)c3)cc2O)nn1)[C@H]1C[C@@H]2CC[C@@H](N2)[C@H]1F (single isomer, unassigned) [Compound 91B]
2. CN(c1ccc(-c2cc3ccn(C)c(=O)c3s2)nn1)[C@@H]1C[C@H]2CC[C@H](N2)[C@@H]1F (single isomer, unassigned) [Compound 67A]
3. CNC(=O)c1cc(O)c(-c2ccc(N(C)[C@@H]3C[C@H]4CC[C@H](N4)[C@@H]3F)nn2)cc1F [Compound 47A]

[3.94, 0.42, 1.45]
